Measured values drawn from patent US9890166B2 for this set.

# target_of_assay: BRD3 (His-Brd3(20-477)) (Homo sapiens (Human), UniProt Q15059)
# Sequence (Q15059 20-477): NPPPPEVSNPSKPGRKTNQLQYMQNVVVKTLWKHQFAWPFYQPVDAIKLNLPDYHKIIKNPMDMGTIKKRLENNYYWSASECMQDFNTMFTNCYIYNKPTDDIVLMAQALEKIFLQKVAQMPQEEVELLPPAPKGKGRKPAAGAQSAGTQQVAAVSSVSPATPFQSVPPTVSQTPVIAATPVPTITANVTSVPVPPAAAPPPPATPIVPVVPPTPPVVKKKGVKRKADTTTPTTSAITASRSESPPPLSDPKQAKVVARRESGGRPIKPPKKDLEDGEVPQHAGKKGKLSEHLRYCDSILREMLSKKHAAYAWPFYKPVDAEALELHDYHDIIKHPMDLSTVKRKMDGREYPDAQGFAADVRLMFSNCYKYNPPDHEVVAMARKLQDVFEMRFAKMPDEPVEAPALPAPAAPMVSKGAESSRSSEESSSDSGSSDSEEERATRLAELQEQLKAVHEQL
experimental_endpoint: IC50 (µM)

{"molecule": "CCn1c(C)nc2c1C(=O)N(c1cc(C)c3nnn(C)c3c1)[C@@H]2c1ccc(Cl)cc1", "reported_relation": "=", "reported": 0.026}
{"molecule": "Cc1cc(N2C(=O)c3nc(C4=CCOC4)n(C(C)C)c3C2c2ccc(Cl)cc2)cn2c(C)nnc12 (stereo not shown)", "reported_relation": "=", "reported": 0.025}
{"molecule": "Cc1cc(N2C(=O)c3nc(C4=CCN(C)CC4)[nH]c3C2c2ccc(Cl)cc2)cn(C)c1=O (stereo not shown)", "reported_relation": "=", "reported": 0.037}
{"molecule": "Cc1cc(N2C(=O)c3nc(C4CCNCC4)n(C(C)C)c3C2c2ccc(Cl)cc2)cn2c(C)nnc12 (stereo not shown)", "reported_relation": "=", "reported": 0.024}
{"molecule": "CCOC(=O)N1CC=C(c2nc3c(n2C(C)C)C(c2ccc(Cl)cc2)N(c2cc(C)c4nnc(C)n4c2)C3=O)CC1 (stereo not shown)", "reported_relation": "=", "reported": 0.017}
{"molecule": "COc1ncccc1-c1nc2c(n1C(C)C)[C@@H](c1ccc(Cl)cc1)N(c1cc(C)c3nnc(C(F)F)n3c1)C2=O", "reported_relation": "=", "reported": 0.014}
{"molecule": "COc1cc(C(F)(F)F)ccc1-c1nc2c([nH]1)C(c1ccc(Cl)cc1)N(c1cc(C)c3nnc(C)n3c1)C2=O (stereo not shown)", "reported_relation": "=", "reported": 0.032}
{"molecule": "CCn1c(C)nc2c1C(=O)N(c1cc(C)c3nnn(C)c3c1)C2c1ccc(Cl)cc1 (stereo not shown)", "reported_relation": "=", "reported": 0.027}
{"molecule": "Cc1cc(N2C(=O)c3nc(C4CCOC4)n(C(C)C)c3C2c2ccc(Cl)cc2)nn2c(C)nnc12 (stereo not shown)", "reported_relation": "=", "reported": 0.043}
{"molecule": "Cc1cc(N2C(=O)c3nc(-c4ncco4)n(C(C)C)c3C2c2ccc(Cl)cc2)cn2c(C)nnc12 (stereo not shown)", "reported_relation": "=", "reported": 0.041}
{"molecule": "CCn1c(-c2ccnn2C)nc2c1C(=O)N(c1cc(C)c(=O)n(C)c1)C2c1ccc(Cl)cc1 (stereo not shown)", "reported_relation": "=", "reported": 0.061}
{"molecule": "Cc1cc(N2C(=O)c3nc(C4CCOC4)n(C(C)C)c3[C@H]2c2ccc(Cl)cc2)nn2c(C)nnc12 (stereo partly shown)", "reported_relation": "<", "reported": 0.011}
{"molecule": "Cc1cc(N2C(=O)c3[nH]c(C4CC4)nc3[C@H]2c2ccc(Cl)cc2)cn(C)c1=O", "reported_relation": "=", "reported": 0.038}

====

# target_of_assay: CREBBP bromodomain (His-CREBBP(1081-1197)) (Homo sapiens (Human), UniProt Q92793)
# Sequence (Q92793 1081-1197): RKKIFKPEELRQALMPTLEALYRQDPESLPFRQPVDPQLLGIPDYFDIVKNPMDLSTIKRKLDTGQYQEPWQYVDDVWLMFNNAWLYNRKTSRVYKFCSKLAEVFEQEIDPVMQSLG
# protocol_description: AlphaScreen in-vitro binding assay for CREBBP
# condition_set: single determination or n ≧ 2 independent determinations, read-out: Biochemical IC50 CREBBP
pIC50: −log10 of the molar value.
Quick reference for pIC50 among some molecules

{"molecule": "Cc1cc(N2C(=O)c3nc(C4CCOC4)n(C(C)C)c3C2c2ccc(Cl)cc2)cc2c1nnn2C (stereo not drawn) [Example 99]", "reported_relation": "=", "pIC50": 6.02}
{"molecule": "Cc1cc(N2C(=O)c3nc(C4CCOC4)n(C(C)C)c3C2c2ccc(Cl)cc2)nn2c(C)nnc12 (stereo not drawn) [Example 170]", "reported_relation": "<", "pIC50": 4.43}
{"molecule": "Cc1cc(N2C(=O)c3nc(C4CC4)n(C)c3C2c2ccc(Cl)cc2)cn2c(C)nnc12 (stereo not drawn) [Example 57]", "reported_relation": "=", "pIC50": 5.29}
{"molecule": "COc1ncccc1-c1nc2c([nH]1)[C@@H](c1ccc(Cl)cc1)N(c1cc(C)c(=O)n(C)c1)C2=O [Example 156]", "reported_relation": "=", "pIC50": 6.59}
{"molecule": "COC(=O)N1CC=C(c2nc3c(n2C(C)C)C(c2ccc(Cl)cc2)N(c2cc(C)c4nnc(C)n4c2)C3=O)CC1 (stereo not drawn) [Example 65]", "reported_relation": "=", "pIC50": 5.40}
{"molecule": "COc1ncccc1-c1nc2c(n1C(C)C)C(c1ccc(Cl)cc1)N(c1cc(C)c3nnc(C(F)F)n3n1)C2=O (stereo not drawn) [Example 148]", "reported_relation": "<", "pIC50": 4.43}
{"molecule": "Cc1cc(N2C(=O)c3c(nc(C)n3C(C)C)[C@H]2c2ccc(Cl)cc2)cc2c1nnn2C [Example 118]", "reported_relation": "=", "pIC50": 5.96}
{"molecule": "Cc1cc(N2C(=O)c3nc(C4CC4)n(C4COC4)c3C2c2ccc(Cl)cc2)cc2c1nnn2C (stereo not drawn) [Example 95]", "reported_relation": "=", "pIC50": 5.71}
{"molecule": "COc1ncccc1-c1nc2c([nH]1)C(c1ccc(Cl)cc1)N(c1cc(C)c3nnc(C)n3c1)C2=O (stereo not drawn) [Example 123]", "reported_relation": "=", "pIC50": 5.26}
{"molecule": "Cc1cc(N2C(=O)c3nc(C4=CCOCC4)n(C(C)C)c3C2c2ccc(Cl)cc2)cn2c(C(F)F)nnc12 (stereo not drawn) [Example 147]", "reported_relation": "=", "pIC50": 4.46}
{"molecule": "COc1ncccc1-c1nc2c(n1C(C)C)[C@@H](c1ccc(Cl)cc1)N(c1cc(C)c3nnc(C(F)F)n3n1)C2=O [Example 168]", "reported_relation": "<", "pIC50": 4.43}
{"molecule": "COc1ncccc1-c1nc2c(n1C(C)C)[C@@H](c1ccc(Cl)cc1)N(c1cc(C)c3nnn(C)c3n1)C2=O [Example 158]", "reported_relation": "<", "pIC50": 4.43}
{"molecule": "COc1ccc(-c2nc3c(n2C(C)C)C(c2ccc(Cl)cc2)N(c2cc(C)c4nnn(C)c4c2)C3=O)cn1 (stereo not drawn) [Example 83]", "reported_relation": "<", "pIC50": 4.43}
{"molecule": "COc1cc(N2C(=O)c3nc(C4=CCOCC4)n(C(C)C)c3C2c2ccc(Cl)cc2)cn2c(C)nnc12 (stereo not drawn) [Example 53]", "reported_relation": "<", "pIC50": 4.43}
{"molecule": "CCn1c(-c2cccnc2OC)nc2c1C(=O)N(c1cc(C)c(=O)n(C)c1)[C@@H]2c1ccc(Cl)cc1 [Example 41]", "reported_relation": "=", "pIC50": 6.37}
